Procedure text: Phase 1 Part 2, multiple ascending dose pharmacokinetics (7 days, q8h)
Format: in vivo, human
Study conditions: human, plasma, oral, 800 mg, Day 1, 800 mg q 8 h, Median; read-out: AUC0-8
Readout name: AUC(0-t) (ng·h/mL)
Numbers only, in ng·h/mL.

The reported AUC(0-t) of the compound "C=Cc1cc(C(=O)Nc2ccc(C(=N)N)cc2)c(-c2ccc(C(=O)NCC3CC3)nc2C(=O)O)cc1OC" was 581

====

Procedure text: Solubility with cyclodextrins and co-agents
Type: physicochemical
Study conditions: Captisol 150 mM with propylene glycol 10%, aqueous with cosolvent or surfactant or cyclodextrin, thermodynamic from solid, Captisol 150 mM, Propylene glycol 10%
Readout name: solubility
Field: value (include unit after the number)

Kindly note the recorded solubility for C=Cc1cc(C(=O)Nc2ccc(C(=N)N)cc2)c(-c2ccc(C(=O)NCC3CC3)nc2C(=O)O)cc1OC [Example 1] , which is 3300 µg/mL

====

Procedure text: Phase 1 Part 2, multiple ascending dose pharmacokinetics (7 days, q8h)
Type: in vivo, human
Study conditions: human, plasma, oral, 400 mg, Day 7, 400 mg q 8 h, GM
Readout name: Cmax (ng/mL)
Numbers only, in ng/mL.

The molecule C=Cc1cc(C(=O)Nc2ccc(C(=N)N)cc2)c(-c2ccc(C(=O)NCC3CC3)nc2C(=O)O)cc1OC [Example 1] showed Cmax equal to 152

====

Procedure text: Further solubility studies in solvents, mixtures and surfactants
Format: physicochemical
Study conditions: 8% EtOH/10% PG in 82% PEG600, organic solvent or mixture, thermodynamic from solid, 8% EtOH/10% PG in 82% PEG600; read-out: Example 1 Solubility After 24 hrs
Readout name: solubility at 24 h (mg/mL)
Numbers only, in mg/mL.

# compound "C=Cc1cc(C(=O)Nc2ccc(C(=N)N)cc2)c(-c2ccc(C(=O)NCC3CC3)nc2C(=O)O)cc1OC" ; its solubility at 24 h = 61

====

Procedure text: Phase 1 Part 1, single ascending oral dose pharmacokinetics and food effect
Type: in vivo, human
Study conditions: human, plasma, po, 1000 mg, 1000 mg single oral dose, fasting; GM
Readout name: AUC(0-t) (ng·h/mL)
Answers are plain numbers, in ng·h/mL.

# compound "C=Cc1cc(C(=O)Nc2ccc(C(=N)N)cc2)c(-c2ccc(C(=O)NCC3CC3)nc2C(=O)O)cc1OC" ; its AUC(0-t) = 981

====

Procedure text: Further solubility studies in solvents, mixtures and surfactants
Type: physicochemical
Study conditions: 10% EtOH in 90% PEG400, organic solvent or mixture, thermodynamic from solid, 10% EtOH in 90% PEG400; read-out: Example 1 Solubility After 24 hrs
Method: The solubility of the compound of Example 1 in a range of organic solvents, mixtures thereof, and some including surfactants, was measured. […] The resulting suspension is then shaken for 24 hours at room temperature, filtered and the resulting solution was analyzed by appropriate analytical method. Quantitation was performed by comparison of the concentrations of the resulting solution of the compound 1 to a single point calibration curve using a solution of the reference standard. […]
Readout name: solubility at 24 h

compound "C=Cc1cc(C(=O)Nc2ccc(C(=N)N)cc2)c(-c2ccc(C(=O)NCC3CC3)nc2C(=O)O)cc1OC" , solubility at 24 h observed: 61.4 mg/mL

====

Procedure text: Phase 1 Part 1, single ascending oral dose pharmacokinetics and food effect
Type: in vivo, human
Study conditions: human, plasma, po, 1000 mg, 1000 mg single oral dose, fasting; median
Readout name: Tmax (h)
Give bare numbers, in h.

The reported Tmax of the compound C=Cc1cc(C(=O)Nc2ccc(C(=N)N)cc2)c(-c2ccc(C(=O)NCC3CC3)nc2C(=O)O)cc1OC [Example 1] was 2

Origin of the recorded values: patent US10905683B2
